This collection of values is drawn from patent US7867989B2.

# Tested Target: α-Glucosidase (EC 3.2.1.20)
# Condition Details: read-out: IC50 values ± SEM against α-glucosidase enzyme; pH 6.9, 37° C., 0.5 μM p-nitrophenyl α-D-glucopyranoside substrate, 250 units/mL enzyme, 50 mM sodium phosphate buffer with 100 mM NaCl
Readout Name: IC50 (µM)
// units = µM; emit number, no label

Lookup: Please provide the recorded IC50 for CC(C)(O)[C@H]1CC[C@]2(C)[C@H]3CC[C@@H]4[C@@]5(C)CCCC(C)(C)[C@@H]5[C@@H](O)C[C@@]4(C)[C@]3(C)CC[C@@H]12 , tested on α-Glucosidase (EC 3.2.1.20).
Found: 100
